# Assay text: PK profile in SD rats (i.v. / oral gavage, plasma LC-MS)
# Assay type: in vivo
# Protocol conditions: female, rat, iv, 1 mg/kg, GEN1-117 dosed i.v. 1 mg/kg
Test readout: half-life

mol_smiles=O=C(Cc1ccc2ncccc2c1)N1CCC(n2c(=O)[nH]c3cccc(C(F)(F)F)c32)CC1 test_readout=half-life observed_value="4.2 h"

---

# Tested on: hERG ion channel (Homo sapiens, UniProt Q12809)
# Construct: expressed in transfected cells; host or cells: CHO cells, stably transfected
# Sequence (Q12809 whole entry): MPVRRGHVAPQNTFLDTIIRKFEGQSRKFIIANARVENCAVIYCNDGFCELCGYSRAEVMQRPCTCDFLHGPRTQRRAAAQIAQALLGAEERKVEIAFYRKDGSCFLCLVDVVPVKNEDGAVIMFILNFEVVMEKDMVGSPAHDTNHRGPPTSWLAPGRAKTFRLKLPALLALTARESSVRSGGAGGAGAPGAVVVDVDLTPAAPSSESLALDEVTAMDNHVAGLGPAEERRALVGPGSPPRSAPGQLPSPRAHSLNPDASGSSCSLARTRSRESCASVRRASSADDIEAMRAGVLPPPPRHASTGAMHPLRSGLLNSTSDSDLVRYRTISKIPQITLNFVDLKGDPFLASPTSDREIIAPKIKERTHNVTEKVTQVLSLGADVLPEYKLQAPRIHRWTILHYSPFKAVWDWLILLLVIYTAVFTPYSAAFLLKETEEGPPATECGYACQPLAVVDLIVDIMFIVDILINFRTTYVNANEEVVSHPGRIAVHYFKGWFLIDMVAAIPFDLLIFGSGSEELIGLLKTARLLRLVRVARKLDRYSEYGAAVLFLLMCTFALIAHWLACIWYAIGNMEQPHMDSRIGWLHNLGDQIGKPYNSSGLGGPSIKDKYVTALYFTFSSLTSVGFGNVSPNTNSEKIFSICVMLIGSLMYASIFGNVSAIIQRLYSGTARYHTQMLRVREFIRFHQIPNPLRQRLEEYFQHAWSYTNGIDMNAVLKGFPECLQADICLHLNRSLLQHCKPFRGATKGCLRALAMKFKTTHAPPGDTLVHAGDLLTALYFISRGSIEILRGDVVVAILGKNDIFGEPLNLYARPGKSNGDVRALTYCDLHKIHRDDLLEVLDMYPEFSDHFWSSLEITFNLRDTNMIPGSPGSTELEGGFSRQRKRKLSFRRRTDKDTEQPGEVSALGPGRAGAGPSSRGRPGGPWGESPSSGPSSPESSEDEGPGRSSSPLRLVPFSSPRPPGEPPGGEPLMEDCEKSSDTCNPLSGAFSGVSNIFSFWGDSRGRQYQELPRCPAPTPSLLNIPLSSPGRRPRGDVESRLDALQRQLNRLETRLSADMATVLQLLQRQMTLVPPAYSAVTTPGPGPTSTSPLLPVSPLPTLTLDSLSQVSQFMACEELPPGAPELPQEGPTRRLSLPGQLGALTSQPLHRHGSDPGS
# Assay text: hERG ion channel inhibition, automated QPatch on CHO cells expressing hERG
# Type: cell-based
# Protocol conditions: human, CHO cells stably expressing hERG channels, 1 μM; read-out: % of hERG inhibition, Cell 1
Test readout: inhibition at 1 µM (%)

compound="O=C(Cc1ccc2ncccc2c1)N1CCC(n2c(=O)n(COP(=O)([O-])[O-])c3cccc(C(F)(F)F)c32)CC1.[Na+].[Na+] [GEN1-284 salt]" test_readout="inhibition at 1 µM" observed_value=2.88
compound=O=C(Cc1ccc2ncccc2c1)N1CCC(n2c(=O)[nH]c3cccc(C(F)(F)F)c32)CC1 test_readout="inhibition at 1 µM" observed_value=7.99

---

# Tested on: hERG (Homo sapiens, UniProt Q12809)
# Construct: expressed in transfected cells; host or cells: CHO cells, stably transfected
# Sequence (Q12809 whole entry): as above
# Assay text: hERG ion channel inhibition, automated QPatch on CHO cells expressing hERG
# Assay type: cell-based
# Protocol conditions: human, CHO cells stably expressing hERG channels, 10 μM; read-out: Mean % hERG inhibition
Recorded inhibition at 10 µM values for a group of compounds are listed next.
Test readout: inhibition at 10 µM (%)

compound="O=C(Cc1ccc2ncccc2c1)N1CCC(n2c(=O)n(COP(=O)([O-])[O-])c3cccc(C(F)(F)F)c32)CC1.[Na+].[Na+] [GEN1-284 salt]" tested_on="hERG (Homo sapiens, UniProt Q12809)" result_units=% observed_value=6.34
compound="O=C(Cc1ccc2ncccc2c1)N1CCC(n2c(=O)[nH]c3cccc(C(F)(F)F)c32)CC1 [GEN1-117]" tested_on="hERG (Homo sapiens, UniProt Q12809)" result_units=% observed_value=16

---

# Assay text: PK profile in SD rats (i.v. / oral gavage, plasma LC-MS)
# Format: in vivo
# Protocol conditions: female, rat, po, GEN1-284s dosed p.o. 10 mg/kg, analyte = labelled compound
Test readout: bioavailability (%)

mol_smiles=O=C(Cc1ccc2ncccc2c1)N1CCC(n2c(=O)[nH]c3cccc(C(F)(F)F)c32)CC1 test_readout=bioavailability result_units=% observed_value=96.3

---

# Assay text: PK profile in beagles (i.v. / oral gavage, plasma LC-MS)
# Format: in vivo
# Protocol conditions: female, beagle, dog, iv, GEN1-284s dosed i.v. 0.5 mg/kg, analyte = labelled compound, read-out: Vdss
# Description: […]
Test readout: Vd (L/kg)

compound="O=C(Cc1ccc2ncccc2c1)N1CCC(n2c(=O)n(COP(=O)([O-])[O-])c3cccc(C(F)(F)F)c32)CC1.[Na+].[Na+] [GEN1-284 salt]" observed_value=0.155

---

Recorded inhibition at 3 µM values for a group of compounds are listed next.
# Tested on: hERG ion channel (Homo sapiens, UniProt Q12809)
# Construct: expressed in transfected cells; host or cells: CHO cells, stably transfected
# Assay text: hERG ion channel inhibition, automated QPatch on CHO cells expressing hERG
# Format: cell-based
# Protocol conditions: human, CHO cells stably expressing hERG channels, 3 μM; read-out: % of hERG inhibition, Cell 1
Test readout: inhibition at 3 µM (%)

compound="O=C(Cc1ccc2ncccc2c1)N1CCC(n2c(=O)n(COP(=O)([O-])[O-])c3cccc(C(F)(F)F)c32)CC1.[Na+].[Na+] [GEN1-284 salt]" test_readout="inhibition at 3 µM" observed_value=0
compound=O=C(Cc1ccc2ncccc2c1)N1CCC(n2c(=O)[nH]c3cccc(C(F)(F)F)c32)CC1 test_readout="inhibition at 3 µM" observed_value=11
